- ASSAY DETAILS: p53 small molecule agonists, cell-based qHTS assay with human liver microsomes: qHTS cell viability counter screen (AID 1963579); further: nearly all actives have a fitted effect of over 45% in size
- RUN PARAMETERS: p53RE-bla HCT-116 viability, ATP luminescence, 16 h, HLM; series mostly up to 66 µM
Inconclusive results are not listed. Calls of active or inactive are those of the source. The call rests on the fitted dose curve.
// classify into 1 (active), -1 (inactive)

Illustrative cases are given below, each with its answer.
{"COMPOUND": "CCCCCCCCCCCCN1CCCCCC1=O", "ASSIGNED CATEGORY": -1}
{"COMPOUND": "O=C[C@@H](O)[C@H](O)[C@H](O)CO", "ASSIGNED CATEGORY": -1}
{"COMPOUND": "CC(=O)S[C@@H]1CC2=CC(=O)CC[C@]2(C)[C@H]2CC[C@@]3(C)[C@@H](CC[C@@]34CCC(=O)O4)[C@H]12", "ASSIGNED CATEGORY": -1}
{"COMPOUND": "CC1(C)[C@@H](O)CC[C@]2(C)[C@H]3C(=O)C=C4[C@@H]5C[C@@](C)(C(=O)O)CC[C@]5(C)CC[C@@]4(C)[C@]3(C)CC[C@@H]12", "ASSIGNED CATEGORY": 1}
{"COMPOUND": "O=c1cc(O)c(Cl)c[nH]1", "ASSIGNED CATEGORY": -1}

q: Which result was noted for this compound in the test: CC(=O)Oc1ccc2c(c1)CC[C@@H]1[C@@H]2CC[C@]2(C)[C@@H](O)CC[C@@H]12
a: -1

q: Which result was noted for this compound in the test: C[C@]12CCC(=O)C=C1[C@@H]1C[C@@H]1[C@H]1[C@@H]3[C@@H]4C[C@@H]4[C@@]4(CCC(=O)O4)[C@@]3(C)CC[C@@H]12
a: -1

q: Which result was noted for this compound in the test: COc1ccc(CCN(C)CCCC(C#N)(c2ccc(OC)c(OC)c2)C(C)C)cc1OC (centres undefined)
a: -1
